# Human GLP1R cAMP EC50, HEK293T annotations
# system-under-test: full-length human GLP-1R with an N-terminal FLAG tag, overexpressed on HEK-293T cells (human, UniProt P43220 24-463)
# experiment-notes: cell-based or functional assay
Starred links: 1 amine or outer side, 2 acyl side, 3 side chain; linkers in the order of their positions; H or OH if unused. Non-standard residues stand in square brackets, D forms with d. Groups on a side chain read outwards from the residue. No end group written: not given here. *: point of attachment. C18 diacid = O=C(O)CCCCCCCCCCCCCCCCC(=O)*; C17 diacid = O=C(O)CCCCCCCCCCCCCCCC(=O)*; γGlu = O=C(O)[C@H](CCC(=O)[*:2])N[*:1]; NMeY = CN[C@@H](Cc1ccc(O)cc1)C(=O)O; Stearoyl = CCCCCCCCCCCCCCCCCC(=O)*; AEEA = NCCOCCOCC(=O)O; E∗ = not defined here; K∗ = not defined here; Aib = CC(C)(N)C(=O)O
endpoint-label: Human GLP1R cAMP EC50, HEK293T (nM)

INSERT INTO measurements (binder, unit_descriptor, cmp, quantitative_result) VALUES
  ('Me-Y[Aib]EGTFISDYSIALDR[E∗]HQ[K∗]NFVNWLLAQK([AEEA-AEEA-γGlu-C18 diacid])PSSGAPPPS-NH2 (not fully specified (residue 1); reading uncertain; also: E* at 17 and K* at 20 marked, meaning not given here) [Compound No. 183]', 'nM', '=', 162),
  ('[NMeY][Aib]EGTFISDYSIAK([AEEA-AEEA-γGlu-γGlu-C17 diacid])DR[Aib]AQ[Aib]NFVNWLLAQS-OH [Compound No. 192]', 'nM', '=', 178),
  ('YXEGTFISDYSIAXDKAXQQDFVEWLLAQRG (N-terminus H; Aib at 2, 14; Km at 18 = Lys(2OEGgE-C18DA); C-terminus OH) [Compound No. 164]', 'nM', '>', 1000),
  ('Y[Aib]EGTFISDYSIAMDKK([AEEA-AEEA-γGlu-C18 diacid])HQQDFVNWLLAQKGKKNDWKHNITQ-OH [Compound No. 188]', 'nM', '=', 132),
  ('[NMeY][Aib]EGTFISDYSIALDR[Aib]AQ[Aib]K([AEEA-AEEA-γGlu-γGlu-Stearoyl])FVNWLLAQKG-OH [Compound No. 203]', 'nM', '=', 4.17),
  ('H-Y[Aib]EGTFISDYSIALDKAK([AEEA-AEEA-γGlu-C18 diacid])Q[Aib]DFVEWLLAQRG-OH [Compound No. 161]', 'nM', '=', 85.1),
  ('[NMeY][Aib]EGTFISDYSI[Aib]LDR[Aib]AQ[Aib]K([AEEA-γGlu-γGlu-C18 diacid])FVNWLLAQRG-OH [Compound No. 207]', 'nM', '=', 36.3),
  ('Me-Y[Aib]EGTFISDYSIALDR[Aib]HQ[E∗]NF[K∗]NWLLAQK([AEEA-AEEA-γGlu-C18 diacid])PSSGAPPPS-NH2 (not fully specified (residue 1); reading uncertain; also: E* at 20 and K* at 23 marked, meaning not given here) [Compound No. 182]', 'nM', '=', 214);
